target.desc: pooled human IgG (human IgG1,2,3 and 4)
property.name: Enzyme activity endpoint: scIgG

# protein PRT-648 (protein) MQITSVWTKGVTPLTPEQFRYNNEDVIHAPYLAHQGWYDITKAFDGKDNLLCGAATAGNMLHWWFDQNKTEIEAYLSKHPEKQKIIFNNQYLFDLKAAIDTKDSQTNSQLFNYFRDKAFGNLSARQLGVMPDLVLDMFINGYYLNVNKTQSTDVNRPYQKPDKRGGIFDAVFTRGDQTTLLTARHDLKNKGLNDISTIIKQELTEGRALALSHTYANVSISHVINLWGADFNAEGNLEAIYVTDSDANASIGMKKYFVGINAHGHVAISAKKIEGENIGAQVLGLFTLSSGKDIWQKLSLEHHHHHH ; its Enzyme activity endpoint: scIgG = 619 ng/µL
